tested on: Mycobacterium tuberculosis Erdman (autoluminescent); test: FIC50 (Loewe) at 50% inhibition (log2); higher = more antagonistic; settings: in vitro model: acidic pH 5.7; time point: terminal (~4-5 doublings, model-specific)
MEASUREMENT NAME: FIC50
Output: the number by itself.

Would you please look over these solved cases?
MOLECULE | SUBJECT OF TEST | FIC50
CC(C)/N=c1\cc2n(-c3ccc(Cl)cc3)c3ccccc3nc-2cc1Nc1ccc(Cl)cc1 [clofazimine] + CC[C@@H](CO)NCCN[C@@H](CC)CO [ethambutol] | Mycobacterium tuberculosis Erdman (autoluminescent) | 0.474
CC(C)/N=c1\cc2n(-c3ccc(Cl)cc3)c3ccccc3nc-2cc1Nc1ccc(Cl)cc1 [clofazimine] + CC(=O)NC[C@H]1CN(c2ccc(N3CCOCC3)c(F)c2)C(=O)O1 [linezolid] | Mycobacterium tuberculosis Erdman (autoluminescent) | 0.329
COc1nc2ccc(Br)cc2cc1[C@@H](c1ccccc1)[C@@](O)(CCN(C)C)c1cccc2ccccc12 [bedaquiline] + COc1c(N2C[C@@H]3CCCN[C@@H]3C2)c(F)cc2c(=O)c(C(=O)O)cn(C3CC3)c12 [moxifloxacin] | Mycobacterium tuberculosis Erdman (autoluminescent) | 0.69

# next molecule below
Q. Data request, read-out FIC50, for NNC(=O)c1ccncc1 [isoniazid] + CO[C@H]1/C=C/O[C@@]2(C)Oc3c(C)c(O)c4c(O)c(c(/C=N/N5CCN(C6CCCC6)CC5)c(O)c4c3C2=O)NC(=O)/C(C)=C\C=C\[C@H](C)[C@H](O)[C@@H](C)[C@@H](O)[C@@H](C)[C@H](OC(C)=O)[C@@H]1C [rifapentine]
A. 0.368

====

test system: Mycobacterium tuberculosis Erdman (autoluminescent); experiment: Einf, fitted maximum growth inhibition of combination (fraction); higher = stronger maximal inhibition; details: in vitro model: cholesterol 0.05 mM; time point: terminal (~4-5 doublings, model-specific)
MEASUREMENT NAME: Einf
Output: the number by itself.

Would you please look over these solved cases?
COMPOUND | VALUE
CC(=O)NC[C@H]1CN(c2ccc(N3CCOCC3)c(F)c2)C(=O)O1 [linezolid] + COc1c(N2C[C@@H]3CCCN[C@@H]3C2)c(F)cc2c(=O)c(C(=O)O)cn(C3CC3)c12 [moxifloxacin] | 0.938
NNC(=O)c1ccncc1 [isoniazid] + CC(=O)NC[C@H]1CN(c2ccc(N3CCOCC3)c(F)c2)C(=O)O1 [linezolid] | 0.945
CC[C@@H](CO)NCCN[C@@H](CC)CO [ethambutol] + CO[C@H]1/C=C/O[C@@]2(C)Oc3c(C)c(O)c4c(O)c(c(/C=N/N5CCN(C)CC5)c(O)c4c3C2=O)NC(=O)/C(C)=C\C=C\[C@H](C)[C@H](O)[C@@H](C)[C@@H](O)[C@@H](C)[C@H](OC(C)=O)[C@@H]1C [rifampicin] | 0.887

Q. Data request, read-out Einf, for NNC(=O)c1ccncc1 [isoniazid] + NC(=O)c1cnccn1 [pyrazinamide]
A. 0.951

Q. Data request, read-out Einf, for CC[C@@H](CO)NCCN[C@@H](CC)CO [ethambutol] + CC(=O)NC[C@H]1CN(c2ccc(N3CCOCC3)c(F)c2)C(=O)O1 [linezolid]
A. 0.952

Q. Data request, read-out Einf, for CC[C@@H](CO)NCCN[C@@H](CC)CO [ethambutol] + NNC(=O)c1ccncc1 [isoniazid]
A. 0.862

====

test system: Mycobacterium tuberculosis Erdman (autoluminescent); assay: total FIC50 (Loewe) at 50% inhibition, three-drug combination (log2); higher = more antagonistic; conditions: in vitro model: cholesterol-high 0.2 mM; time point: constant (~7 days, model-specific)
MEASUREMENT NAME: total FIC50
Output: the number by itself.

MOLECULE | total FIC50
CC(C)/N=c1\cc2n(-c3ccc(Cl)cc3)c3ccccc3nc-2cc1Nc1ccc(Cl)cc1 [clofazimine] + NNC(=O)c1ccncc1 [isoniazid] + CC(=O)NC[C@H]1CN(c2ccc(N3CCOCC3)c(F)c2)C(=O)O1 [linezolid] | 0.36
COc1nc2ccc(Br)cc2cc1[C@@H](c1ccccc1)[C@@](O)(CCN(C)C)c1cccc2ccccc12 [bedaquiline] + NNC(=O)c1ccncc1 [isoniazid] + CC(=O)NC[C@H]1CN(c2ccc(N3CCOCC3)c(F)c2)C(=O)O1 [linezolid] | 0.506
CC(C)/N=c1\cc2n(-c3ccc(Cl)cc3)c3ccccc3nc-2cc1Nc1ccc(Cl)cc1 [clofazimine] + NNC(=O)c1ccncc1 [isoniazid] + CO[C@H]1/C=C/O[C@@]2(C)Oc3c(C)c(O)c4c(O)c(c(/C=N/N5CCN(C6CCCC6)CC5)c(O)c4c3C2=O)NC(=O)/C(C)=C\C=C\[C@H](C)[C@H](O)[C@@H](C)[C@@H](O)[C@@H](C)[C@H](OC(C)=O)[C@@H]1C [rifapentine] | 0.542
CC(C)/N=c1\cc2n(-c3ccc(Cl)cc3)c3ccccc3nc-2cc1Nc1ccc(Cl)cc1 [clofazimine] + CC(=O)NC[C@H]1CN(c2ccc(N3CCOCC3)c(F)c2)C(=O)O1 [linezolid] + COc1c(N2C[C@@H]3CCCN[C@@H]3C2)c(F)cc2c(=O)c(C(=O)O)cn(C3CC3)c12 [moxifloxacin] | 0.411
CC(C)/N=c1\cc2n(-c3ccc(Cl)cc3)c3ccccc3nc-2cc1Nc1ccc(Cl)cc1 [clofazimine] + NC(=O)c1cnccn1 [pyrazinamide] + CO[C@H]1/C=C/O[C@@]2(C)Oc3c(C)c(O)c4c(O)c(c(/C=N/N5CCN(C)CC5)c(O)c4c3C2=O)NC(=O)/C(C)=C\C=C\[C@H](C)[C@H](O)[C@@H](C)[C@@H](O)[C@@H](C)[C@H](OC(C)=O)[C@@H]1C [rifampicin] | 1.06

Q. Data request, read-out total FIC50, for COc1nc2ccc(Br)cc2cc1[C@@H](c1ccccc1)[C@@](O)(CCN(C)C)c1cccc2ccccc12 [bedaquiline] + NNC(=O)c1ccncc1 [isoniazid] + COc1c(N2C[C@@H]3CCCN[C@@H]3C2)c(F)cc2c(=O)c(C(=O)O)cn(C3CC3)c12 [moxifloxacin]
A. 0.394

Q. Data request, read-out total FIC50, for CC(C)/N=c1\cc2n(-c3ccc(Cl)cc3)c3ccccc3nc-2cc1Nc1ccc(Cl)cc1 [clofazimine] + CC[C@@H](CO)NCCN[C@@H](CC)CO [ethambutol] + COc1c(N2C[C@@H]3CCCN[C@@H]3C2)c(F)cc2c(=O)c(C(=O)O)cn(C3CC3)c12 [moxifloxacin]
A. 0.429

====

tested on: Mycobacterium tuberculosis Erdman (autoluminescent); assay: total FIC50 (Loewe) at 50% inhibition, three-drug combination (log2); higher = more antagonistic; conditions: in vitro model: cholesterol 0.05 mM; time point: constant (~7 days, model-specific)
# total FIC50 binned as low (below -0.1), medium (-0.1 to below 0.4), high (0.4 or more)

Some entries whose results are on file:
COMPOUND | SUBJECT OF TEST | CLASS LABEL
NNC(=O)c1ccncc1 [isoniazid] + CC(=O)NC[C@H]1CN(c2ccc(N3CCOCC3)c(F)c2)C(=O)O1 [linezolid] + CO[C@H]1/C=C/O[C@@]2(C)Oc3c(C)c(O)c4c(O)c(c(/C=N/N5CCN(C)CC5)c(O)c4c3C2=O)NC(=O)/C(C)=C\C=C\[C@H](C)[C@H](O)[C@@H](C)[C@@H](O)[C@@H](C)[C@H](OC(C)=O)[C@@H]1C [rifampicin] | Mycobacterium tuberculosis Erdman (autoluminescent) | medium
CC(C)/N=c1\cc2n(-c3ccc(Cl)cc3)c3ccccc3nc-2cc1Nc1ccc(Cl)cc1 [clofazimine] + CC(=O)NC[C@H]1CN(c2ccc(N3CCOCC3)c(F)c2)C(=O)O1 [linezolid] + CO[C@H]1/C=C/O[C@@]2(C)Oc3c(C)c(O)c4c(O)c(c(/C=N/N5CCN(C)CC5)c(O)c4c3C2=O)NC(=O)/C(C)=C\C=C\[C@H](C)[C@H](O)[C@@H](C)[C@@H](O)[C@@H](C)[C@H](OC(C)=O)[C@@H]1C [rifampicin] | Mycobacterium tuberculosis Erdman (autoluminescent) | low
COc1nc2ccc(Br)cc2cc1[C@@H](c1ccccc1)[C@@](O)(CCN(C)C)c1cccc2ccccc12 [bedaquiline] + CC(=O)NC[C@H]1CN(c2ccc(N3CCOCC3)c(F)c2)C(=O)O1 [linezolid] + COc1c(N2C[C@@H]3CCCN[C@@H]3C2)c(F)cc2c(=O)c(C(=O)O)cn(C3CC3)c12 [moxifloxacin] | Mycobacterium tuberculosis Erdman (autoluminescent) | medium
CC(=O)NC[C@H]1CN(c2ccc(N3CCOCC3)c(F)c2)C(=O)O1 [linezolid] + COc1c(N2C[C@@H]3CCCN[C@@H]3C2)c(F)cc2c(=O)c(C(=O)O)cn(C3CC3)c12 [moxifloxacin] + CO[C@H]1/C=C/O[C@@]2(C)Oc3c(C)c(O)c4c(O)c(c(/C=N/N5CCN(C)CC5)c(O)c4c3C2=O)NC(=O)/C(C)=C\C=C\[C@H](C)[C@H](O)[C@@H](C)[C@@H](O)[C@@H](C)[C@H](OC(C)=O)[C@@H]1C [rifampicin] | Mycobacterium tuberculosis Erdman (autoluminescent) | medium
CC[C@@H](CO)NCCN[C@@H](CC)CO [ethambutol] + CC(=O)NC[C@H]1CN(c2ccc(N3CCOCC3)c(F)c2)C(=O)O1 [linezolid] + CO[C@H]1/C=C/O[C@@]2(C)Oc3c(C)c(O)c4c(O)c(c(/C=N/N5CCN(C)CC5)c(O)c4c3C2=O)NC(=O)/C(C)=C\C=C\[C@H](C)[C@H](O)[C@@H](C)[C@@H](O)[C@@H](C)[C@H](OC(C)=O)[C@@H]1C [rifampicin] | Mycobacterium tuberculosis Erdman (autoluminescent) | low

Q. Which category does the recorded total FIC50 put CC[C@@H](CO)NCCN[C@@H](CC)CO [ethambutol] + NNC(=O)c1ccncc1 [isoniazid] + O=[N+]([O-])c1cn2c(n1)OC[C@@H](OCc1ccc(OC(F)(F)F)cc1)C2 [pretomanid] in?
A. high

Q. Which category does the recorded total FIC50 put COc1nc2ccc(Br)cc2cc1[C@@H](c1ccccc1)[C@@](O)(CCN(C)C)c1cccc2ccccc12 [bedaquiline] + COc1c(N2C[C@@H]3CCCN[C@@H]3C2)c(F)cc2c(=O)c(C(=O)O)cn(C3CC3)c12 [moxifloxacin] + CO[C@H]1/C=C/O[C@@]2(C)Oc3c(C)c(O)c4c(O)c(c(/C=N/N5CCN(C)CC5)c(O)c4c3C2=O)NC(=O)/C(C)=C\C=C\[C@H](C)[C@H](O)[C@@H](C)[C@@H](O)[C@@H](C)[C@H](OC(C)=O)[C@@H]1C [rifampicin] in?
A. medium

Q. Which category does the recorded total FIC50 put COc1nc2ccc(Br)cc2cc1[C@@H](c1ccccc1)[C@@](O)(CCN(C)C)c1cccc2ccccc12 [bedaquiline] + O=[N+]([O-])c1cn2c(n1)OC[C@@H](OCc1ccc(OC(F)(F)F)cc1)C2 [pretomanid] + CO[C@H]1/C=C/O[C@@]2(C)Oc3c(C)c(O)c4c(O)c(c(/C=N/N5CCN(C)CC5)c(O)c4c3C2=O)NC(=O)/C(C)=C\C=C\[C@H](C)[C@H](O)[C@@H](C)[C@@H](O)[C@@H](C)[C@H](OC(C)=O)[C@@H]1C [rifampicin] in?
A. high

Q. Which category does the recorded total FIC50 put CC(C)/N=c1\cc2n(-c3ccc(Cl)cc3)c3ccccc3nc-2cc1Nc1ccc(Cl)cc1 [clofazimine] + CC(=O)NC[C@H]1CN(c2ccc(N3CCOCC3)c(F)c2)C(=O)O1 [linezolid] + O=[N+]([O-])c1cn2c(n1)OC[C@@H](OCc1ccc(OC(F)(F)F)cc1)C2 [pretomanid] in?
A. low

Q. Which category does the recorded total FIC50 put CC[C@@H](CO)NCCN[C@@H](CC)CO [ethambutol] + NNC(=O)c1ccncc1 [isoniazid] + COc1c(N2C[C@@H]3CCCN[C@@H]3C2)c(F)cc2c(=O)c(C(=O)O)cn(C3CC3)c12 [moxifloxacin] in?
A. high

Q. Which category does the recorded total FIC50 put CC[C@@H](CO)NCCN[C@@H](CC)CO [ethambutol] + CO[C@H]1/C=C/O[C@@]2(C)Oc3c(C)c(O)c4c(O)c(c(/C=N/N5CCN(C6CCCC6)CC5)c(O)c4c3C2=O)NC(=O)/C(C)=C\C=C\[C@H](C)[C@H](O)[C@@H](C)[C@@H](O)[C@@H](C)[C@H](OC(C)=O)[C@@H]1C [rifapentine] + CO[C@H]1/C=C/O[C@@]2(C)Oc3c(C)c(O)c4c(O)c(c(/C=N/N5CCN(C)CC5)c(O)c4c3C2=O)NC(=O)/C(C)=C\C=C\[C@H](C)[C@H](O)[C@@H](C)[C@@H](O)[C@@H](C)[C@H](OC(C)=O)[C@@H]1C [rifampicin] in?
A. low

Q. Which category does the recorded total FIC50 put CC(C)/N=c1\cc2n(-c3ccc(Cl)cc3)c3ccccc3nc-2cc1Nc1ccc(Cl)cc1 [clofazimine] + NNC(=O)c1ccncc1 [isoniazid] + CO[C@H]1/C=C/O[C@@]2(C)Oc3c(C)c(O)c4c(O)c(c(/C=N/N5CCN(C6CCCC6)CC5)c(O)c4c3C2=O)NC(=O)/C(C)=C\C=C\[C@H](C)[C@H](O)[C@@H](C)[C@@H](O)[C@@H](C)[C@H](OC(C)=O)[C@@H]1C [rifapentine] in?
A. high

Reference source: the supplement of paper PMC8617591
